Tested on: CAL-148
Measurement Notes: normalised viability (% of control), CellTiter-Blue; higher = more viable cells (about 100 = DMSO control)
Condition Set: incubation time: 72 h
Value Type: normalised viability (%)
The response must be a number in % with no trailing unit.

Some entries whose results are on file:
[[record]]
molecule = "Cn1c(Nc2ccc(C(F)(F)F)cc2)nc2cc(Oc3ccnc(-c4ncc(C(F)(F)F)[nH]4)c3)ccc21 [RAF265] (1000 nM)"
value_type = "normalised viability"
obs_value = 64.1

[[record]]
molecule = "CCC1=C[C@@H]2CN(C1)Cc1c([nH]c3ccccc13)[C@@](C(=O)OC)(c1cc3c(cc1OC)N(C)[C@H]1[C@@](O)(C(=O)OC)[C@H](OC(C)=O)[C@]4(CC)C=CCN5CC[C@]31[C@@H]54)C2 [Vinorelbine] (10000 nM)"
value_type = "normalised viability"
obs_value = 30.3


Now turn to the next molecule.
Task: Fill blank: measured normalised viability of the molecule Cc1ccc(-n2nc(C(C)(C)C)cc2NC(=O)Nc2ccc(OCCN3CCOCC3)c3ccccc23)cc1 [Doramapimod] (10000 nM) is ____.
Result: 111
